- testName: NCI Yeast Anticancer Drug Screen. Data for the rad50 strain (AID 155);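 further: 0% = growth of vehicle-only cultures of the same strain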
- conditionDetails: S. cerevisiae rad50 strain growth inhibition; at 3.7 µM
The panel holds about 79,000 compounds, 15% with a hit somewhere; the sample as a whole holds those more often. Active and inactive are the calls of the source. No stated cut-off is given here; in the data, active means growth inhibition above about 70%; inactive means the rest.
Classes used: active, inactive

{"molecule": "COc1cccc2c1C(=O)c1c(O)c3c(c(O)c1C2=O)CC(O)(C(O)CO)CC3OC1CC(N2CCOCC2)C(O)C(C)O1 (centres undefined)", "discreteLabel": "active"}
{"molecule": "N#CC1=C(N)N(/N=C/c2ccccc2)C(c2ccccc2)C1(C#N)C#N (centres undefined)", "discreteLabel": "inactive"}
{"molecule": "CC(=O)OC1CC2C(C)(C)C(=O)C=C[C@]2(C)C2CCC3(C)C(=CCC3[C@H](CO)C[C@H](O)C(=O)C(C)(C)O)[C@]12C (some centres undefined)", "discreteLabel": "inactive"}
{"molecule": "Cc1cccc2c1nc1ccc(Cl)cc1[n+]2C", "discreteLabel": "inactive"}
{"molecule": "c1ccc2c(OCC3CO3)cccc2c1 (centres undefined)", "discreteLabel": "inactive"}
{"molecule": "Nc1n[n+]([O-])c2ccc(Cl)cc2[n+]1[O-]", "discreteLabel": "active"}
{"molecule": "COC(C(O)CO)C(O)C(O)C(=O)NNc1ccccc1 (centres undefined)", "discreteLabel": "inactive"}
{"molecule": "O=C1OC(C2=CC(=O)c3ccccc3C2=O)C(Cl)=C1Cl (centres undefined)", "discreteLabel": "inactive"}
{"molecule": "CC1SC2(C(=O)Nc3ccc(Cl)cc32)N(c2ccc(Cl)cc2)C1=O (centres undefined)", "discreteLabel": "inactive"}

----------
- testName: NCI Yeast Anticancer Drug Screen. Data for the wt2 strain (AID 169);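 further: 0% = growth of vehicle-treated yeast cultures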
- conditionDetails: S. cerevisiae wt2 strain growth inhibition; at 1.2 µM; stronger effect = higher value
- Experimental: Growth inhibition of yeast strains with defined genetic alterations is measured as a screen for potential anti-cancer activity. Selected strains with alterations in DNA damage repair or cell cycle control were exposed to compounds and growth inhibition was measured relative to vehicle treated controls. The strain used in this assay is wt2
About 79,000 compounds went through this panel and 15% of them were active in at least one assay; those are over-represented in the sample as a whole. The source made the active and inactive calls. No stated cut-off is given here; in the data, active means growth inhibition above about 70%; inactive means the rest.
measuredEndpoint: growth inhibition

{"compound": "O=C1OC(C2=CC(=O)c3ccccc3C2=O)C(Cl)=C1Cl (stereo unspecified)", "measuredEndpoint": "growth inhibition", "valueReported": "1% (inactive)"}
{"compound": "CC(C)(C)N=C(NO)c1ccccc1", "measuredEndpoint": "growth inhibition", "valueReported": "1% (inactive)"}
{"compound": "Cc1c2cccc(Sc3ccccc3)c2c2c3c(cccc13)[S+](c1ccccc1)C2 (stereo unspecified)", "measuredEndpoint": "growth inhibition", "valueReported": "6% (inactive)"}
{"compound": "COc1ccc(N=CN(C)C)c(C)c1", "measuredEndpoint": "growth inhibition", "valueReported": "-26% (inactive)"}
{"compound": "O=C(/C=C(/c1ccccc1)N1CCCCC1)c1ccccc1", "measuredEndpoint": "growth inhibition", "valueReported": "-1% (inactive)"}
{"compound": "C=C(C(=C)n1nnc(C(=O)OC)c1C(=O)OC)n1nnc(C(=O)OC)c1C(=O)OC", "measuredEndpoint": "growth inhibition", "valueReported": "-1% (inactive)"}
{"compound": "O=C1Nc2ccccc2/C1=C/c1ccccc1", "measuredEndpoint": "growth inhibition", "valueReported": "-3% (inactive)"}
{"compound": "CCC(C)(C)c1ccc(Oc2cccc(C(=O)O)c2)cc1", "measuredEndpoint": "growth inhibition", "valueReported": "-4% (inactive)"}
{"compound": "Cc1nc2c(Br)cc(Br)cc2c(=O)n1-c1ccccc1NC1OCC(O)C(O)C1O (stereo unspecified)", "measuredEndpoint": "growth inhibition", "valueReported": "2% (inactive)"}
{"compound": "O=C(NCCCl)Sc1ccc(Cl)cc1", "measuredEndpoint": "growth inhibition", "valueReported": "1% (inactive)"}
{"compound": "S=C1SCN(C2CCCCC2)CN1C1CCCCC1", "measuredEndpoint": "growth inhibition", "valueReported": "-37% (inactive)"}
{"compound": "CCC1(OC(=O)CN2CCN(CCO)CC2)C(=O)OCc2c1cc1n(c2=O)Cc2cc3ccccc3nc2-1 (stereo unspecified)", "measuredEndpoint": "growth inhibition", "valueReported": "11% (inactive)"}
{"compound": "CN(C)Cc1cc(N=Nc2ccc(Cl)cc2)ccc1OC(=O)c1ccccc1", "measuredEndpoint": "growth inhibition", "valueReported": "1% (inactive)"}
{"compound": "O=C1C(Br)=C(c2ccccc2)O/C1=C/C(=O)c1ccc(Br)cc1", "measuredEndpoint": "growth inhibition", "valueReported": "1% (inactive)"}
{"compound": "Oc1ccc(-c2nc(-c3ccc(F)cc3)c(-c3ccc4ccccc4n3)[nH]2)cc1", "measuredEndpoint": "growth inhibition", "valueReported": "-56% (inactive)"}
{"compound": "C(=Nc1ccc(-c2cc(-c3ccccc3)nc3ccc4ccccc4c23)cc1)c1ccccc1", "measuredEndpoint": "growth inhibition", "valueReported": "-22% (inactive)"}

----------
- testName: NCI Yeast Anticancer Drug Screen. Data for the bub3 strain (AID 167)
- conditionDetails: S. cerevisiae bub3 mutant strain, at 11.0 µM, stronger effect = higher value
The panel holds about 79,000 compounds, 15% with a hit somewhere; the sample as a whole holds those more often.
growth inhibition for assorted molecules

{"molecule": "N/C(=N/N=C/c1cc(Br)cc(Br)c1O)NO", "readingUnit": "%", "growth inhibition": 44}
{"molecule": "Oc1ccc2c(c1)C(O)CCCC2 (centres undefined)", "readingUnit": "%", "growth inhibition": -9}
{"molecule": "CNCCCNc1c2ccccc2nc2cccc([N+](=O)[O-])c12", "readingUnit": "%", "growth inhibition": 92}
{"molecule": "CC(=O)OCC(C)Cc1cc2c(cc1Br)OCO2 (centres undefined)", "readingUnit": "%", "growth inhibition": 2}
{"molecule": "CCCCOC(=O)Nc1ccc(C)c(NC(=O)OCCCC)c1", "readingUnit": "%", "growth inhibition": -8}
{"molecule": "Nc1ccc2c(c1)C(=O)c1ccc(F)cc1-2", "readingUnit": "%", "growth inhibition": 12}
{"molecule": "COc1ccc([N+](=O)[O-])c2c(NCCCN(C)C)c3ccccc3nc12", "readingUnit": "%", "growth inhibition": -4}
{"molecule": "CCOC(=O)C1=C(C)NC(C)=C(C(=O)OCCNC(=O)c2ccc(N=[N+]=[N-])cc2)C1c1ccccc1C(F)(F)F (centres undefined)", "readingUnit": "%", "growth inhibition": -5}
{"molecule": "N=C1N=Nc2nc(C3(c4nc5n(c4O)C(=N)N=N5)Cc4ccccc4C3=O)c(O)n21 (centres undefined)", "readingUnit": "%", "growth inhibition": 9}
{"molecule": "O=C(O)c1ccc(N2C(=O)C=CC2=O)cc1", "readingUnit": "%", "growth inhibition": -3}
{"molecule": "O=C(C[n+]1ccc2ccccc2c1)c1ccc2ccccc2c1", "readingUnit": "%", "growth inhibition": -27}
{"molecule": "Cc1nc(-c2cc3cc([N+](=O)[O-])ccc3oc2=O)cs1", "readingUnit": "%", "growth inhibition": -1}
{"molecule": "CCc1c[n+]([O-])c(C)cc1[N+](=O)[O-]", "readingUnit": "%", "growth inhibition": -14}
{"molecule": "O=C1c2cccnc2C(=O)C2C3C=CC(C3)C12 (centres undefined)", "readingUnit": "%", "growth inhibition": 72}

----------
- testName: NCI Yeast Anticancer Drug Screen. Data for the CLN2oe strain (AID 163);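 further: 0% = growth of vehicle-only control cultures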
- conditionDetails: S. cerevisiae CLN2oe strain, at 11.0 µM
About 79,000 compounds went through this panel and 15% of them were active in at least one assay; those are over-represented in the sample as a whole. Active and inactive are the calls of the source. No stated cut-off is given here; in the data, active means growth inhibition above about 70%; inactive means the rest.
Classes used: t for active, f for inactive

{"compound": "O=C(CC(C(=O)O)N1CCOCC1)c1ccccc1 (stereo not drawn)", "discreteLabel": "f"}
{"compound": "COc1oc(C(=O)NC2CCCCC2)c(-c2ccc(Cl)cc2)c1S(=O)(=O)c1ccccc1", "discreteLabel": "f"}
{"compound": "Cc1cc(C(C)(C)C)c(OCCCN2CCOCC2)c(C(C)(C)C)c1", "discreteLabel": "f"}
{"compound": "CCCCCCOC(=O)NCCOC(=O)Nc1ccccc1", "discreteLabel": "f"}
{"compound": "COC(=O)CCC(NC(=S)N/N=C(\\C)c1ccccn1)C(=O)OC (stereo not drawn)", "discreteLabel": "f"}
{"compound": "Cc1ccc(NCCNCCO)c2c(=O)c3cc(O)ccc3sc12", "discreteLabel": "f"}
{"compound": "OC1(c2ccccc2)CCCc2ccc(Cl)cc21 (stereo not drawn)", "discreteLabel": "f"}
{"compound": "COc1c(O)c(C=O)c(Br)c(C=O)c1O", "discreteLabel": "f"}
{"compound": "CCOC(=O)c1cc([N+](=O)[O-])c(Sc2ncnc3nc[nH]c23)c([N+](=O)[O-])c1", "discreteLabel": "f"}
{"compound": "CC(C)CN(CC(C)C)C(=O)c1ccc(Cl)c(Cl)c1", "discreteLabel": "f"}
{"compound": "Nc1ncc(-c2ccc(Br)cc2)s1", "discreteLabel": "f"}
{"compound": "Cc1cc(S(=O)(=O)Nc2nnc3cnc4ccccc4n23)c(S)cc1Cl", "discreteLabel": "f"}
{"compound": "O=C(O)c1cc2ccc(Cl)cc2c(O)c1C1=CCCCC1", "discreteLabel": "f"}
{"compound": "CC(=O)OCC1OC2OC(=O)NC2C(OC(C)=O)C1OC(C)=O (stereo not drawn)", "discreteLabel": "f"}
{"compound": "COc1ccc(C(=O)Oc2ccccc2Br)cc1", "discreteLabel": "f"}
{"compound": "Nc1nc(N)c2nc(CNc3ccc(C(=O)NC(CCC(=O)O)C(=O)O)cc3F)cnc2n1 (stereo not drawn)", "discreteLabel": "f"}
{"compound": "c1ccc2cc(NCNc3ccc4ccccc4c3)ccc2c1", "discreteLabel": "f"}
{"compound": "O=C1Nc2ccccc2/C1=C/c1ccccc1", "discreteLabel": "f"}
{"compound": "COC1=C(OC)C(=O)C(Sc2ccc3ccccc3c2)=CC1=O", "discreteLabel": "f"}
{"compound": "O/N=C\\c1c(O)ccc2ccccc12", "discreteLabel": "f"}
{"compound": "CCCCN(CCCC)CCC(O)c1cc2c(Cl)cc(Cl)cc2c2cc(C(F)(F)F)ccc12 (stereo not drawn)", "discreteLabel": "t"}
{"compound": "O=C(COC(=O)c1ccccc1)c1ccc(Br)cc1", "discreteLabel": "f"}
{"compound": "COc1cc(O)c2c(c1O)C(=O)c1cc(C)ncc1C2=O", "discreteLabel": "f"}
{"compound": "O=C(O)c1ccccc1/C=N/N=C1c2ccccc2-c2ccccc21", "discreteLabel": "f"}
{"compound": "Cc1ccc(S/C(=C\\C(=O)O)c2ccccc2)cc1", "discreteLabel": "f"}
{"compound": "COc1ccc([N+](=O)[O-])c2c(NCCCN(C)C)c3ccccc3nc12", "discreteLabel": "f"}
{"compound": "Cc1nc(-c2cc3cc([N+](=O)[O-])ccc3oc2=O)cs1", "discreteLabel": "f"}
{"compound": "CCCCCCCCCCCCCCCCCC(=O)NCCCN(C)C", "discreteLabel": "f"}
{"compound": "CC(=O)Nc1ccc2c(c1)Cc1cc(N=C3C=CC(=O)O3)ccc1-2", "discreteLabel": "f"}
{"compound": "O=C1C=C(Cl)C(=O)N1c1cccc(Cl)c1", "discreteLabel": "t"}
{"compound": "CC(C)OC(=O)c1ccc(CCc2cc(O)c(Br)cc2O)cc1", "discreteLabel": "f"}
{"compound": "O=C(O)c1cc2ccccc2c2c1C(=O)c1ccccc1-2", "discreteLabel": "f"}
{"compound": "COC(=O)/C=C(/CC(=O)OC)C(=O)OC", "discreteLabel": "f"}
{"compound": "O=[N+]([O-])c1ccc(N/N=C/Cc2ccccc2)c([N+](=O)[O-])c1", "discreteLabel": "f"}
{"compound": "CCCC/C([O-])=C1/C(=O)N(c2ccccc2)N=C1C.CCCC/C([O-])=C1/C(=O)N(c2ccccc2)N=C1C.[Cu+2]", "discreteLabel": "f"}
{"compound": "Nc1ccc(F)cc1S", "discreteLabel": "f"}
{"compound": "Cc1nc(Nc2ccccc2[N+](=O)[O-])sc1C(=O)CC(=O)C(=O)Nc1c(C(C)C)cccc1C(C)C", "discreteLabel": "f"}
{"compound": "C=C1CC(CCCl)(c2ccccc2)OC1=O (stereo not drawn)", "discreteLabel": "f"}
